Exercise: state measured koff for each of the binders provided.
# System Name: T1, purified CD160 (SPR analyte) (UniProt O95971 25-159, limits assumed)
# T1 sequence (looked up): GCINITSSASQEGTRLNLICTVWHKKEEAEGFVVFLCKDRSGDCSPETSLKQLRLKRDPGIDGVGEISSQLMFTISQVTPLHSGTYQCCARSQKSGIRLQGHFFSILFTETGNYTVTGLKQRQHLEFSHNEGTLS
# Protocol Description: SPR, Biacore T200, scFv captured on CM5 chip, CD160 as analyte, single-cycle kinetics, 1:1 Langmuir fit
Show the value, then the unit it is measured in.

Q: Which koff reading was recorded for the binder anti-CD160 scFv clone 3 (C83) (scFv) scFv: QVNLQESGPGLVQPSETLSLTCTVSGFSLTSYGVYWVRQPPGKGLEWMGRIWNDGGTDYNPALKSRLSISRDTSKSQVFLKLNSLQTEDTAIYFCARGWTHWGQGTLVTVSSGGGGSGGGGSGGGGSDIQMTQSPASLSASLGETVSIECLASEDIYNNLAWYQQKPGKSPQLLIYYASSLQDGVPSRFSGSGSGTQYSLKINSLESEDVATYFCLQDSEYPPTFGGGTKLELKR ?
Ans: 1.69e-08 s⁻¹

Q: Looking for the measured koff of anti-CD160 scFv clone 1 (C123) (scFv, Rat scFv, VH-linker-VL) scFv: EVKLVESGGGLVQPGRSLKLSCAASGFIFSNYAMAWVRQAPTKGLEWVASVNSGGANTYYRDSVKGRFTISRDNAKNTQYLHIDSLRSEDTATYYCATHNYESTVFDYWGQGAMVTVSSGGGGSGGGGSSGGGGSEIVLTQSPTTMTASPGEKVTITCRASSSVSYMHWYQQKPGASPKPWIYETSKLASGVPDRFSGSGSGTSYSLTINNMEAEDAATYYCQQWNYPSMYTFGAGTKLELKR , can you help?
Ans: 2.76e-07 s⁻¹

Q: Which koff reading was recorded for the binder anti-CD160 scFv clone 16 (scFv, Rat scFv, VH-linker-VL) scFv: QVNLQESGPGLVRPSETLSLTCTVSGFSLISYGVNWFRQPPGKGLEWMGTIWNDGGTDYNSALKSRLSISRDTSKSQVFLKMNSLQTEDTAIYFCARGFEHWGQGVMVTVSSGGGGSGGGGSGGGGSDIQMTQSPASLSASLGETVSIECLTSEDISNDSAWYQQKSGKSPQLLIYAASRLQDGVPSRFSGSGSGTRYSLKISGMQPEDEADYFCQQSYKYPLTFGSGTKLEIKR ?
Ans: 0.00243 s⁻¹

More entries:
Q: Give its koff value. Item: anti-CD160 scFv clone 4 (scFv) scFv: EVKLVESGGGLVQPGRPLKLSCAASGFTFSNYGMAWVRQAPKKGLEWVATISTGDDNTYYRDSVKGRFTISRDNAKNTQYLQMDSLRSEDTATYYCATHNYESTIFDYWGQGVMVTVSSGGGGSGGGGSGGGGSDIAITQSPASMTASPGERVTITCRASSSVSYMHWYQQKPGASPKPWIYETSKLASGVPDRFSGSGSGTSYSLTINNMEAEDAATYYCQQWNYPSMYTFGAGTKLELKR
Ans: 3.9e-05 s⁻¹
